From: the supplement of paper PMC7877785

# EXPERIMENT_SUMMARY: self-splicing fitness, log relative to wild type (ln ratio); higher = more splicing; Tetrahymena group I intron in knt gene, E. coli kanamycin selection, DiMSum; sequences stand for … in CUCUCU…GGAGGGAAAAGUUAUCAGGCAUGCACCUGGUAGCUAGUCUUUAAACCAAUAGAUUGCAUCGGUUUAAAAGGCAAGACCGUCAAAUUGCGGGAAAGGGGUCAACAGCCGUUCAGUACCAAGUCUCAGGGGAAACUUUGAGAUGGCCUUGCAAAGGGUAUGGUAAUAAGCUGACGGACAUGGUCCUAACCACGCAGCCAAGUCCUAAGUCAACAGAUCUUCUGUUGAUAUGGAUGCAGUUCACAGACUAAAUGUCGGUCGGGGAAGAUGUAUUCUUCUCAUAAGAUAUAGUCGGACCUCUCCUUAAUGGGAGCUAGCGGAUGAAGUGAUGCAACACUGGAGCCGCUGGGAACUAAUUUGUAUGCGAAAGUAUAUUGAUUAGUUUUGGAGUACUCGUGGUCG;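 note: selection with 25 µg/mL kanamycin versus none on LB agar overnight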
# CONDITION_SUMMARY: 37 °C
OBSERVED_PROPERTY: self-splicing fitness (ln)
Output spec: single numeric token, no unit.

These recorded examples may help you get a feel for the data.
CONSTRUCT_SEQUENCE: AACUAGCAAUAUUACGGCGC
self-splicing fitness (ln): -0.34

CONSTRUCT_SEQUENCE: GUUGAGCAAUAUUACGUGGC
self-splicing fitness (ln): -2.17

CONSTRUCT_SEQUENCE: UAGGAGCAAUAUUACGGCUU
self-splicing fitness (ln): -3.13

CONSTRUCT_SEQUENCE: UACGAGCAAUAUUACGUAGC
self-splicing fitness (ln): -1.01

CONSTRUCT_SEQUENCE: ACAAAGCAAUAUUACGUGAC
self-splicing fitness (ln): -1.37

Returns the measured self-splicing fitness (ln) for the input sequence. Input: AUUAAGCAAUAUUACGAAAC -1.6

Report self-splicing fitness (ln) for GUGGAGCAAUAUUACGUUGU please. -2.53

Reported self-splicing fitness (ln) for GCAAAGCAAUAUUACGGGUA : what is it? -0.7

What does the record list as self-splicing fitness (ln) for UGAUAGCAAUAUUACGAGCG ? 0.433
